- Target System: T1, human DLL4, full length, on cells (human, UniProt Q9NR61 27-685)
- T1 construct: also called huDLL4 cells; human DLL4-293G
- T1 sequence (Q9NR61 27-685 limits assumed): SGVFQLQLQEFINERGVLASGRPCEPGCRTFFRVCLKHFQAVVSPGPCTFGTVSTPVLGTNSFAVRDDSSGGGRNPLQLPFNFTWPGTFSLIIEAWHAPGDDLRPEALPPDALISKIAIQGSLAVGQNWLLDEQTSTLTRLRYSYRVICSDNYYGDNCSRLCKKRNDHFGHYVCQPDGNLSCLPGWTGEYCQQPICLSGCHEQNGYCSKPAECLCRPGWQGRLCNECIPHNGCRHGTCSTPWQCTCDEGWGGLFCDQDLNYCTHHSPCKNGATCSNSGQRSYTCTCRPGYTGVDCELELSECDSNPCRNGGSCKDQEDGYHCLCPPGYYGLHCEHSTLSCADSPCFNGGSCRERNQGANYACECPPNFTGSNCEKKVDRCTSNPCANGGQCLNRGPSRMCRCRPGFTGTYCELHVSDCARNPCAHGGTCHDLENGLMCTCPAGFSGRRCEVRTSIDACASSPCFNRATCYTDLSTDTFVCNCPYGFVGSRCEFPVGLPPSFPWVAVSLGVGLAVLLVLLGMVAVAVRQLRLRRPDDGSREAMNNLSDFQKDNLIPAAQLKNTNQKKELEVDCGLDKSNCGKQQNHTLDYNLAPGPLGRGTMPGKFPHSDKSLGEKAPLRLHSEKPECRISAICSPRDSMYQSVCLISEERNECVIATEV
- Experimental Protocol: competition FACS: huNotch-1 to DLL4 cells
Reported Endpoint: IC50 (nM)
State the answer as a number, implicitly in nM.

Query: Report IC50 for 15D6 chimeric antibody (antibody, human IgG1, V domains shown, also called Chimera of 15D6) VH: EVQLQQSGPELAKPGSSVKISCKASGYTFTSSYISWIKQTTGQGLEYIGYINTGSGGTDYNEKFKDKATLTVDKSSRTVFMQLSSLTPGDSAVYYCAKSILLGSTYYLDYWGQGVMVTVSS VL: DTVLTQSPALAVSLGQRVTISCKASRSLSSPMYSYIYWYQQKLGQQPRLLIYRASTLASGVPARFSGSGSGTDFTLNIDPVEADDIATYFCQQSWSDPFTFGSGTKLEIKR please.
Result: 10.5

Query: Need IC50, item 14G1 chimeric antibody (antibody, human IgG1, V domains shown, also called Chimera of 14G1) VH: EVQLQQSGAELAKPGSSVKISCKASGYTFTNYDISWIKQTNGQGLEYLGYINTGSGGIYSNEKFKGKATLTVDKSSNTAFMQLSSLTPEDTAVYYCVREGNNFDHWGQGVKVTVSS VL: DTVMTQSPASMSTSVGERVTVNCKASQSVGTIVAWFQQKPGQSPKRLIYLATYRHTGVPDRFIGSGFGRDFTLTISNVEAEDLAVYYCLQYGSRPFTFGAGTKLEIKR
Result: 4.11

Query: Consider the binder shown here: 37D10 chimeric antibody (antibody, human IgG1, V domains shown, also called Chimera of 37D10) VH: AVQLVESGGGLVQPKESLKISCAASGFTFSNAAMYWVRLAPGKGLEWVARIRTKPNNYATYYAESVKGRFTISRDDSKSMVYVQMDNLKTEDTAMYYCTAAPWRDSYAHVYWGQGVMVTVSS VL: DIQMTQSPPVLSASVGDRVTLSCKASQNIHKNLDWYQQKHGDAPKLLIYYTDHLQTGVPSRFSGSGSATDYTLTISSLQPEDVATYYCYQYNGGPFTFGSGTKLEIKR What is its recorded IC50?
Result: 5.95
